Data provenance is patent US5459148A.

# ED50 per entry
# Target desc: AII receptor (Rattus norvegicus, UniProt P25095)
# Construct: from tissue; host or cells: whole anesthetized male Wister-Imamichi rat (in vivo, blood pressure in the femoral artery)
# Sequence (P25095 whole entry): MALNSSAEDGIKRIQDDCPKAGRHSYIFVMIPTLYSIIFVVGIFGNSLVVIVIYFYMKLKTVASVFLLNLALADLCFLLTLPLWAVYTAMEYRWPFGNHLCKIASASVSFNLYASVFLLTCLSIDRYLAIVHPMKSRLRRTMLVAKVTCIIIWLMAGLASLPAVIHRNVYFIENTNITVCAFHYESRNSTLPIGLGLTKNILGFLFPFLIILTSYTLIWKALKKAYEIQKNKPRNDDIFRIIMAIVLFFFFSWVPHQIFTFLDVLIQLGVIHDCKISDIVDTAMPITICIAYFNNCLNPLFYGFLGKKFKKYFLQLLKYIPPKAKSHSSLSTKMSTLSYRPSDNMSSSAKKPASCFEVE
# Assay notes: Inhibition of pressor response to intravenous angiotensin II (AII receptor blocking activity)
# Format: in vivo, rat (male Wister-Imamichi)
# Condition summary: 2 min, read-out: ID50 (dose required to inhibit the pressor response to intravenous angiotensin II by fifty percent)
# Description: Evaluation of AII receptor blocking activity by Inhibition of pressor response to angiotensin II The biological activity of each compound was assessed by determining the dose required to inhibit the pressor response to intravenous angiotensin II by fifty percent (ID50) in rats. […]

{"columns": ["Compound", "ED50"],
 "data": [
  ["C=C(C)c1nc(CCC)n(Cc2ccc(-c3ccccc3C(=O)C(=O)O)cc2)c1C(=O)O", "0.06 mg/kg"],
  ["CCCCc1nc(C(O)C(C)(C)C)c(C(N)=O)n1Cc1ccc(-c2ccccc2C(=O)C(=O)O)cc1 (stereo not shown)", "0.048 mg/kg"],
  ["CCCCc1nc(C(O)C(C)C)c(C(N)=O)n1Cc1ccc(-c2ccccc2C(=O)C(=O)O)cc1 (stereo not shown)", "0.042 mg/kg"],
  ["CCc1nc2c(C)cc(C)nc2n1Cc1ccc(-c2ccccc2C(=O)C(=O)O)cc1", "0.024 mg/kg"],
  ["CCCc1nc(C(O)C(C)C)c(C(N)=O)n1Cc1ccc(-c2ccccc2C(=O)C(=O)O)cc1 (stereo not shown)", "0.022 mg/kg"],
  ["CCOCc1nc(C(C)(C)O)c(C(=O)O)n1Cc1ccc(-c2ccccc2C(=O)C(=O)O)cc1", "0.0096 mg/kg"],
  ["CCCc1nc(C(O)C(C)(C)C)c(C(N)=O)n1Cc1ccc(-c2ccccc2C(=O)C(=O)O)cc1 (stereo not shown)", "0.017 mg/kg"],
  ["CCCc1nc(CO)c(C(=O)O)n1Cc1ccc(-c2ccccc2C(=O)C(=O)O)cc1", "0.02 mg/kg"],
  ["CCCc1nc(C(C)(C)O)c(C(=O)O)n1Cc1ccc(-c2ccccc2C(=O)C(=O)O)cc1", "0.0065 mg/kg"],
  ["CCCc1nc(C(C)C)c(C(=O)O)n1Cc1ccc(-c2ccccc2C(=O)C(=O)O)cc1", "0.053 mg/kg"],
  ["CCCc1nc(C(C)(C)O)c(-c2nnn[nH]2)n1Cc1ccc(-c2ccccc2C(=O)C(=O)O)cc1", "0.021 mg/kg"],
  ["CCCCc1nc(C(C)(C)O)c(C(=O)O)n1Cc1ccc(-c2ccccc2C(=O)C(=O)O)cc1", "0.026 mg/kg"],
  ["CCCc1nc(C(C)(C)O)c(C(=O)O)n1Cc1ccc(-c2ccccc2C(=O)c2nnn[nH]2)cc1", "0.026 mg/kg"]
]}
